From: patent US7481993B2

- TEST DETAILS: Cysteine challenge stability of ^99mTc chelator peptides
- Assay type: physicochemical
- ASSAY CONDITIONS: N1-N2-Cys triamide thiol chelators; cysteine challenge; 8 h
* marks the point of attachment. Bz = O=C(c1ccccc1)*
OBSERVABLE: % Peptide Complexed to ^99mTc 8 h

1) Bz-Gly-Gly-Gln-Cys-Ala.amide (Bz-GGQCA-NH2; SMILES C[C@H](NC(=O)[C@H](CS)NC(=O)[C@H](CCC(N)=O)NC(=O)CNC(=O)CNC(=O)c1ccccc1)C(N)=O) = 80.1%
2) Ac-Tyr-Gly-Gly-Orn-Cys-Ala.amide [GOC] = 80.0%
3) Ac-Tyr-Gly-Glu-Gly-Cys-Ala.amide (Ac-YGEGCA-NH2) = 67.4%
4) Ac-Tyr-Gly-Gly-His-Cys-Ala.amide (Ac-YGGHCA-NH2) = 68.8%
5) Bz-Gly-Gly-Met-Cys-Ala.amide (Bz-GGMCA-NH2; SMILES CSCC[C@H](NC(=O)CNC(=O)CNC(=O)c1ccccc1)C(=O)N[C@@H](CS)C(=O)N[C@@H](C)C(N)=O) = 82.7%
6) Bz-Gly-Gly-Glu-Cys-Ala.amide (Bz-GGECA-NH2; SMILES C[C@H](NC(=O)[C@H](CS)NC(=O)[C@H](CCC(=O)O)NC(=O)CNC(=O)CNC(=O)c1ccccc1)C(N)=O) = 75.7%
7) Ac-Tyr-Gly-Gly-(D)Orn-Cys-Ala.amide [GoC2] = 89.0%
8) Ac-Tyr-Gly-Met-Gly-Cys-Ala.amide (Ac-YGMGCA-NH2) = 82.0%

* * *

- TEST DETAILS: HPLC radiochemical purity (RCP) stability of ^99mTc radiolabeled somatostatin peptides
- Format: physicochemical
- ASSAY CONDITIONS: ^99mTc labeled somatostatin peptide, (β)Dap-N2-Cys chelator; 6 hours
OBSERVABLE: HPLC RCP 6 hours (%)

1. cyclo-[Tyr-(D)Trp-Lys-Thr-Phe-(N-Me)Hcy]-CH2CO.(β)Dap-Dab-Cys-Thr-Ser [—CH2CH2NH2] = 90.7
2. cyclo-[Tyr-(D)Trp-Lys-Thr-Phe-(N-Me)Hcy]-CH2CO.(β)Dap-Lys-Cys-Thr-Ser [—CH2CH2CH2CH2NH2] = 81.3
3. cyclo-[Tyr-(D)Trp-Lys-Thr-Phe-(N-Me)Hcy]-CH2CO.(β)Dap-Gly-Cys-Thr-Ser [—H] = 83.7
4. cyclo-[Tyr-(D)Trp-Lys-Thr-Phe-(N-Me)Hcy]-CH2CO.(β)Dap-(α)Dap-Cys-Thr-Ser [—CH2NH2] = 84.1
5. cyclo-[Tyr-(D)Trp-Lys-Thr-Phe-(N-Me)Hcy]-CH2CO.(β)Dap-Orn-Cys-Thr-Ser [—CH2CH2CH2NH2] = 94.9
6. cyclo-[Tyr-(D)Trp-Lys-Thr-Phe-(N-Me)Hcy]-CH2CO.(β)Dap-Met-Cys-Thr-Ser [—CH2CH2SCH3] = 92.5

* * *

- TEST DETAILS: HPLC radiochemical purity (RCP) stability of ^99mTc radiolabeled somatostatin peptides
- Type: physicochemical
- ASSAY CONDITIONS: ^99mTc labeled somatostatin peptide, (β)Dap-N2-Cys chelator; 3 hours
OBSERVABLE: HPLC RCP 3 hours (%)

1. cyclo-[Tyr-(D)Trp-Lys-Thr-Phe-(N-Me)Hcy]-CH2CO.(β)Dap-Orn-Cys-Thr-Ser [—CH2CH2CH2NH2] = 95.2
2. cyclo-[Tyr-(D)Trp-Lys-Thr-Phe-(N-Me)Hcy]-CH2CO.(β)Dap-Dab-Cys-Thr-Ser [—CH2CH2NH2] = 91.6
3. cyclo-[Tyr-(D)Trp-Lys-Thr-Phe-(N-Me)Hcy]-CH2CO.(β)Dap-(α)Dap-Cys-Thr-Ser [—CH2NH2] = 86.6
4. cyclo-[Tyr-(D)Trp-Lys-Thr-Phe-(N-Me)Hcy]-CH2CO.(β)Dap-Gly-Cys-Thr-Ser [—H] = 84.8
5. cyclo-[Tyr-(D)Trp-Lys-Thr-Phe-(N-Me)Hcy]-CH2CO.(β)Dap-Lys-Cys-Thr-Ser [—CH2CH2CH2CH2NH2] = 83.4
6. cyclo-[Tyr-(D)Trp-Lys-Thr-Phe-(N-Me)Hcy]-CH2CO.(β)Dap-Met-Cys-Thr-Ser [—CH2CH2SCH3] = 93.7
